- SYSTEM: wild type c-kit (Homo sapiens (Human))
- Sequence (P10721 26-976): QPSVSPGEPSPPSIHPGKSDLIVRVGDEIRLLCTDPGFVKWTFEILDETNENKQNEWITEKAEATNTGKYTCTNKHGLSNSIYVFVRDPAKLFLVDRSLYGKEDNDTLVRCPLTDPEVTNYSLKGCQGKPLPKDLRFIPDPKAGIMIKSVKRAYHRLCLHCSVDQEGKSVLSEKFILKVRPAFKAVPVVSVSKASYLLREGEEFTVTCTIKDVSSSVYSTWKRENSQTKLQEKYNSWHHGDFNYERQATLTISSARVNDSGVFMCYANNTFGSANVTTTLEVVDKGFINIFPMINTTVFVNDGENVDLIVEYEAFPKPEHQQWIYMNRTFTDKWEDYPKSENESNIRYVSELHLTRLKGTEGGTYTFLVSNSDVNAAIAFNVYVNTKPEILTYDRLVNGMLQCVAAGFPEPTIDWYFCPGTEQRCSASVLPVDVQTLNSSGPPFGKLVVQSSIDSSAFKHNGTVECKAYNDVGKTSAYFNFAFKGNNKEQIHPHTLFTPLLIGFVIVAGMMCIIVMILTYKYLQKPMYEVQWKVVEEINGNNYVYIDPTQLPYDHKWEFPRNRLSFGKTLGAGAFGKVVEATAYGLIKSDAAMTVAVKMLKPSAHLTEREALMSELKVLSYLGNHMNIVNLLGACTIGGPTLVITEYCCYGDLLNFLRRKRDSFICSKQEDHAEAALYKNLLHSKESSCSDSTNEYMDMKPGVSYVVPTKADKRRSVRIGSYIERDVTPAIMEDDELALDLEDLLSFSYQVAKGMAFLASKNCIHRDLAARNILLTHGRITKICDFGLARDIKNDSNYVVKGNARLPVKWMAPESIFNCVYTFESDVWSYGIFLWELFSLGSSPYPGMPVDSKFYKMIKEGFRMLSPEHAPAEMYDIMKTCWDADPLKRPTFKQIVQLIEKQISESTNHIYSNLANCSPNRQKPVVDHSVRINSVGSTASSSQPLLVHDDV
- ASSAY OVERVIEW: MSD Phospho c-Kit (Tyr721) Assay Whole Cell Lysate Kit in SCF-stimulated M-07e cells (pKIT assay, marked *)
- Format: cell-based
- CONDITION SET: Meso Scale Discovery (MSD) assay (values marked *)
MEASURE NAME: pIC50
Scale explanation: pIC50 corresponds to minus log10 of a concentration expressed in moles per litre.

Solved cases (5 shown):
COMPOUND	pIC50
Cc1ccc(-c2nnn(CC[C@@](C)(O)C(F)(F)F)n2)cc1NC(=O)c1cnn2ccccc12 (single isomer, unassigned)	8.74
Cc1ccc(-c2nnn(C3CN(S(C)(=O)=O)C3)n2)cc1NC(=O)c1cnn2ccc(C3CC3)cc12	8.10
COCCS(=O)(=O)N1CC(c2nnn(-c3ccc(C)c(NC(=O)c4cnn5ccccc45)c3)n2)C1	8.31
Cc1ccc(-c2nnn(CC3CCOCC3)n2)cc1NC(=O)c1cnn2ccccc12	8.08
Cc1ccc(-c2nnn(C3CC(F)(F)C3)n2)cc1NC(=O)c1cnn2ccc(-c3cnn(CCO)c3)cc12	9.22

input: // returns reported pIC50 for input Cc1ccc(-c2nnn(CC34CC(F)(C3)C4)n2)cc1NC(=O)c1cnn2ccccc12
output: 8.57

input: // returns reported pIC50 for input Cc1ccc(-c2nnn(C3CN(S(=O)(=O)C4(C)CC4)C3)n2)cc1NC(=O)c1cnn2ccccc12
output: 8.19

input: // returns reported pIC50 for input Cc1ccc(-c2nnn([C@H](C)C3CC3)n2)cc1NC(=O)c1cnn2ccccc12 (single isomer, unassigned) [Example 38]
output: 8.14

input: // returns reported pIC50 for input Cc1ccc(-c2nnn(C3CN(S(=O)(=O)C(F)(F)F)C3)n2)cc1NC(=O)c1cnn2ccccc12
output: 8.40

input: // returns reported pIC50 for input CO[C@H]1C[C@@H](n2nnc(-c3ccc(C)c(NC(=O)c4cnn5ccccc45)c3)n2)C1
output: 8.42
